Molecular target: HLA-B*3501 (human)
Attribute: Stability (half-life of the peptide on HLA-B*35)

Consider the worked cases shown below.
TPRLPSSADVEFC (synthetic peptide; also called 13-mer 309-321) [tyrosinase peptide 309-321 TPRLPSSADVEFC] :: < 0.5 h
VPLDCVLYR (synthetic peptide) [gp100 peptide 471-479 VPLDCVLYR] :: < 0.5 h

Query: Give reported Stability (half-life of the peptide on HLA-B*35) value for MPFATPMEA (synthetic peptide; also called nonamer 94-102) [NY-ESO-1 peptide 94-102 MPFATPMEA]
Response: > 6 h

Query: Give reported Stability (half-life of the peptide on HLA-B*35) value for LAMPFATPMEAEL (synthetic peptide; also called 13-mer 92-104) [NY-ESO-1 peptide 92-104 LAMPFATPMEAEL]
Response: > 6 h
